These entries and their values trace back to the PolyMetriX glass transition set.

Assign glass transition temperature to each entry below.
One number for each entry, in °C.

Example results:
| molecule | glass transition temperature / °C |
| --- | --- |
| *c1ccc(Sc2ccc3c(c2)Sc2ccc(Sc4ccc(-n5c(=O)c6cc7c(=O)n(*)c(=O)c7cc6c5=O)cc4)cc2S3)cc1 (repeat unit) | 254.8 |
| *C(=O)Nc1ccc(Oc2ccc(C(c3ccc(Oc4ccc(NC(=O)c5ccc6c(c5)C(=O)N(c5ccc(Oc7ccc8ccc(Oc9ccc(N%10C(=O)c%11ccc(*)cc%11C%10=O)cc9)cc8c7)cc5)C6=O)cc4)cc3)(C(F)(F)F)C(F)(F)F)cc2)cc1 (repeat unit) | 250.00 |
| *CCC1C(=O)N(CCCCCC)C(=O)C1* (repeat unit) | 41.50 |
| *Oc1ccc(Oc2ccc(NC(=C(C#N)C#N)c3ccc(C(Nc4ccc(*)cc4)=C(C#N)C#N)cc3)cc2)cc1 (repeat unit) | 255.00 |
| *Oc1ccc(CC(NC(=O)Cc2ccc(OC(=O)COCC(*)=O)cc2)C(=O)OCCCCCCCC)cc1 (repeat unit) | 51.00 |

Please turn your attention to the following entry.
Prompt line: Entry under review: *Oc1ccc(OC(=O)c2ccc(OCCCCCCCCCCCCOc3ccc(C(*)=O)cc3)cc2)cc1/C=C/c1ccncc1 (repeat unit) . Reported glass transition temperature?
Response line: 94.30
